Reference for the values: the supplement of paper PMC11061612

Test system: LB996-RCC (Kidney Carcinoma);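 further: after 72 h of two-drug dosing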
Assay: Bliss excess, mean over the matrix (fraction); higher = more synergy
recorded.endpoint: Bliss excess

| molecule | recorded.endpoint | recorded.measurement |
| --- | --- | --- |
| CC1(C)CCC(CN2CCN(c3ccc(C(=O)NS(=O)(=O)c4ccc(NCC5CCOCC5)c([N+](=O)[O-])c4)c(Oc4cnc5[nH]ccc5c4)c3)CC2)=C(c2ccc(Cl)cc2)C1 [Venetoclax] + COc1cc(Nc2ncc3c(n2)-c2ccc(Cl)cc2C(c2c(F)cccc2OC)=NC3)ccc1C(=O)O [Alisertib] (first compound max 1 µM, 7x7, partner max 10 µM) | Bliss excess | -0.0096 |
| COc1cccc(OCCCN)c1-c1cc(Nc2cnc(C#N)cn2)n[nH]1 [Prexasertib] + C[C@@H]1COCCN1C2=NC(=NC(=C2)C3(CC3)[S@](=N)(=O)C)C4=C5C=CNC5=NC=C4 [AZD6738] (first compound max 1 µM, 7x7, partner max 10 µM) | Bliss excess | 0.0355 |
| CC1(C)CCC(CN2CCN(c3ccc(C(=O)NS(=O)(=O)c4ccc(NCC5CCOCC5)c([N+](=O)[O-])c4)c(Oc4cnc5[nH]ccc5c4)c3)CC2)=C(c2ccc(Cl)cc2)C1 [Venetoclax] + C[C@@H]1COCCN1C2=NC(=NC(=C2)C3(CC3)[S@](=N)(=O)C)C4=C5C=CNC5=NC=C4 [AZD6738] (first compound max 1 µM, 7x7, partner max 10 µM) | Bliss excess | -0.066 |
| CC(=O)c1c(C)c2cnc(Nc3ccc(N4CCNCC4)cn3)nc2n(C2CCCC2)c1=O [Palbociclib] + CN(CC[C@H](CSC1=CC=CC=C1)NC2=C(C=C(C=C2)S(=O)(=O)NC(=O)C3=CC=C(C=C3)N4CCC(CC4)[C@H](C5=CC=CC=C5C6=CC=C(C=C6)Cl)O)S(=O)(=O)C(F)(F)F)CCO [AZD4320] (first compound max 10 µM, 7x7, partner max 1 µM) | Bliss excess | -0.0652 |
| Cn1cnc2c(F)c(Nc3ccc(Br)cc3Cl)c(C(=O)NOCCO)cc21 [Selumetinib] + CC(C)n1c(=O)n(C)c2cnc3cc(F)c(-c4ccc(OCCCN5CCCCC5)nc4)cc3c21 [AZD1390] (first compound max 10 µM, 7x7, partner max 0.3 µM) | Bliss excess | -0.0262 |
| CN(C)CCCOc1ccc(-c2ccc3ncc4c(c3c2)n(C2CCOCC2)c(=O)n4C)cn1 [AZD0156] + O=C(c1cc(Cc2n[nH]c(=O)c3ccccc23)ccc1F)N1CCN(C(=O)C2CC2)CC1 [Olaparib] (first compound max 3 µM, partner max 3 µM) | Bliss excess | 0.0071 |
| NC1(C(=O)N[C@@H](CCO)c2ccc(Cl)cc2)CCN(c2ncnc3[nH]ccc23)CC1 [Capivasertib] + CC(C)n1c(=O)n(C)c2cnc3cc(F)c(-c4ccc(OCCCN5CCCCC5)nc4)cc3c21 [AZD1390] (first compound max 10 µM, 7x7, partner max 0.3 µM) | Bliss excess | -0.0871 |
| Cc1cc2ncnn2cc1Nc1ncc2c(n1)n(C1CCOCC1)c(=O)n2C [AZD7648] + O=C(c1cc(Cc2n[nH]c(=O)c3ccccc23)ccc1F)N1CCN(C(=O)C2CC2)CC1 [Olaparib] (first compound max 10 µM, 7x7, partner max 10 µM) | Bliss excess | -0.0152 |
| CC(=O)Nc1cccc(-n2c(=O)n(C3CC3)c(=O)c3c(Nc4ccc(I)cc4F)n(C)c(=O)c(C)c32)c1 [Trametinib] + Cc1nc(-c2cn3c(n2)-c2ccc(-c4cnn(C(C)(C)C(N)=O)c4)cc2OCC3)n(C(C)C)n1 [Taselisib] (first compound max 1 µM, 7x7, partner max 10 µM) | Bliss excess | 0.0519 |
| Cn1cnc2c(F)c(Nc3ccc(Br)cc3Cl)c(C(=O)NOCCO)cc21 [Selumetinib] + C=CCn1c(=O)c2cnc(Nc3ccc(N4CCN(C)CC4)cc3)nc2n1-c1cccc(C(C)(C)O)n1 [AZD1775] (first compound max 10 µM, partner max 1 µM) | Bliss excess | -0.0886 |
| COc1cccc2c1C(=O)c1c(O)c3c(c(O)c1C2=O)C[C@@](O)(C(=O)CO)C[C@@H]3O[C@H]1C[C@H](N)[C@H](O)[C@H](C)O1 [Doxorubicin] + Cc1cc2ncnn2cc1Nc1ncc2c(n1)n(C1CCOCC1)c(=O)n2C [AZD7648] (first compound max 1 µM, 7x7, partner max 10 µM) | Bliss excess | 0.0561 |
| NC1(C(=O)N[C@@H](CCO)c2ccc(Cl)cc2)CCN(c2ncnc3[nH]ccc23)CC1 [Capivasertib] + COc1nnc2ccc(N3CCC(c4ccc(OCCN5CCN(C)C(=O)[C@H]5C)cc4)CC3)nn12 [AZD5153] (first compound max 10 µM, 7x7, partner max 1 µM) | Bliss excess | 0.0131 |
| Cc1c2c(nn1C)CSCc1cc(n(C)n1)CSc1cc(c3ccccc3c1)OCCCc1c(C(=O)O)n(C)c3c-2c(Cl)ccc13 [AZD5991] + C[C@@H]1COCCN1C2=NC(=NC(=C2)C3(CC3)[S@](=N)(=O)C)C4=C5C=CNC5=NC=C4 [AZD6738] (first compound max 1 µM, 7x7, partner max 10 µM) | Bliss excess | 0.0301 |
